Biological target: Serine/threonine-protein kinase MRCK beta (Homo sapiens) (UniProt Q9Y5S2);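 note: averaged inhibition values against MRCK beta, part of the GSK PKIS profiling dataset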
Sequence (Q9Y5S2 whole entry): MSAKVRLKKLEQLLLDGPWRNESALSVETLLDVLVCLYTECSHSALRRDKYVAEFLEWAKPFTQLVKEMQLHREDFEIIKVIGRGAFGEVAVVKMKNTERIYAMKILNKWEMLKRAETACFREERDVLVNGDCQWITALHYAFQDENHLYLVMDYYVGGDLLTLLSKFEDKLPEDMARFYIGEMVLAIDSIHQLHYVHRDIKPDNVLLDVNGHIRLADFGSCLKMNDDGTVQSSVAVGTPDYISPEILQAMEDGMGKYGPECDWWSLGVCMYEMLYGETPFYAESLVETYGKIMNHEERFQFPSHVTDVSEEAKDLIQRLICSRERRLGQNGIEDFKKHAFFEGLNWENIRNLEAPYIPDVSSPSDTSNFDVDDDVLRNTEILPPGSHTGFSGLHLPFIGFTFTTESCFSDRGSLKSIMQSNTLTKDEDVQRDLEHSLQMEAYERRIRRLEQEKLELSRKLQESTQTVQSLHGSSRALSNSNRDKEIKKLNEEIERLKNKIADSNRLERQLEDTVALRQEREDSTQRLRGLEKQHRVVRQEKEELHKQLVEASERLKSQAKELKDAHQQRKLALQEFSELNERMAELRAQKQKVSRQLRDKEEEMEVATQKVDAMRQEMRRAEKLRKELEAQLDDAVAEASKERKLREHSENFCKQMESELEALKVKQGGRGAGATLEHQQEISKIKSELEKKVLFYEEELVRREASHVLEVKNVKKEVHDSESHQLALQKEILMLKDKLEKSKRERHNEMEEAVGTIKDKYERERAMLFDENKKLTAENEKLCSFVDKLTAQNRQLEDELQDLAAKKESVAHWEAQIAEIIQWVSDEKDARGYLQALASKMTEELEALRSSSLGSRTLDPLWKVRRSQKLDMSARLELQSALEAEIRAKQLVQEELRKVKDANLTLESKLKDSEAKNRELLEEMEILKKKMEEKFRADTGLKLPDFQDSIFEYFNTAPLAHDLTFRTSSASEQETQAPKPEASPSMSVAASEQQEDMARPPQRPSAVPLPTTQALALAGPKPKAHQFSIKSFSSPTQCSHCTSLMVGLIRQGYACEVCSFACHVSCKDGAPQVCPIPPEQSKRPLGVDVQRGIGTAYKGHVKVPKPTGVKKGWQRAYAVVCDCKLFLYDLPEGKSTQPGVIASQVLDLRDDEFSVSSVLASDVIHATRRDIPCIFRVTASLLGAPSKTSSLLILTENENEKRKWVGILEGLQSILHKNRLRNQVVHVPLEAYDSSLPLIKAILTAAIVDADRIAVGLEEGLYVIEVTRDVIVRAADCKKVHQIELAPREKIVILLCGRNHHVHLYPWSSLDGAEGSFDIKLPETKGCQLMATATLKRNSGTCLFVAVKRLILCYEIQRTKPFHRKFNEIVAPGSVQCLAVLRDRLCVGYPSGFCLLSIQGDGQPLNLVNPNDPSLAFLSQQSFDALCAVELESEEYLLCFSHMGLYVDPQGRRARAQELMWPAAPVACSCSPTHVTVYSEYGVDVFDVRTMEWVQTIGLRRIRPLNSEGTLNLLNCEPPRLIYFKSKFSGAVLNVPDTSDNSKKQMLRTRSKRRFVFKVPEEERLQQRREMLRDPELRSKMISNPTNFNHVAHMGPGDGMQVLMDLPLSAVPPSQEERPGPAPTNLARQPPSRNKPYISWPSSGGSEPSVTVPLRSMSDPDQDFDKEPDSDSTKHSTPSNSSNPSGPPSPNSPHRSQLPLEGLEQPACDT
Settings: at 1 µM
Would you mind telling me the reported inhibition of each entry?
Just the number in %, nothing appended.

Reported inhibition of O=C(Nc1ccc(Oc2ccc3[nH]c(NC(=O)c4ccco4)nc3c2)cc1)Nc1cc(C(F)(F)F)ccc1F : 2.67

Reported inhibition of c1ccc(Nc2ncc(-c3ccccc3)o2)cc1 : 0.28

Reported inhibition of CC(C)c1ccc2c(c1)NC(=O)/C2=N/Nc1ccc(S(N)(=O)=O)cc1 : -1.37

Reported inhibition of Cc1cc(O)cc(C)c1/C=C/c1cncc(C(=O)N(C)C)c1 : 1.36

Reported inhibition of CS(=O)(=O)Nc1cccc(-c2ccc3c(NC(=O)C4CC4)n[nH]c3c2)c1 : 1.32

Reported inhibition of COc1cc(/C=N/Nc2ncnc3c2cnn3C(C)C)ccc1O : 0.35

====

Molecular target: Vascular endothelial growth factor receptor 2 (Homo sapiens) (UniProt P35968);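 note: each value is the mean percent inhibition of KDR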
Sequence (P35968 whole entry): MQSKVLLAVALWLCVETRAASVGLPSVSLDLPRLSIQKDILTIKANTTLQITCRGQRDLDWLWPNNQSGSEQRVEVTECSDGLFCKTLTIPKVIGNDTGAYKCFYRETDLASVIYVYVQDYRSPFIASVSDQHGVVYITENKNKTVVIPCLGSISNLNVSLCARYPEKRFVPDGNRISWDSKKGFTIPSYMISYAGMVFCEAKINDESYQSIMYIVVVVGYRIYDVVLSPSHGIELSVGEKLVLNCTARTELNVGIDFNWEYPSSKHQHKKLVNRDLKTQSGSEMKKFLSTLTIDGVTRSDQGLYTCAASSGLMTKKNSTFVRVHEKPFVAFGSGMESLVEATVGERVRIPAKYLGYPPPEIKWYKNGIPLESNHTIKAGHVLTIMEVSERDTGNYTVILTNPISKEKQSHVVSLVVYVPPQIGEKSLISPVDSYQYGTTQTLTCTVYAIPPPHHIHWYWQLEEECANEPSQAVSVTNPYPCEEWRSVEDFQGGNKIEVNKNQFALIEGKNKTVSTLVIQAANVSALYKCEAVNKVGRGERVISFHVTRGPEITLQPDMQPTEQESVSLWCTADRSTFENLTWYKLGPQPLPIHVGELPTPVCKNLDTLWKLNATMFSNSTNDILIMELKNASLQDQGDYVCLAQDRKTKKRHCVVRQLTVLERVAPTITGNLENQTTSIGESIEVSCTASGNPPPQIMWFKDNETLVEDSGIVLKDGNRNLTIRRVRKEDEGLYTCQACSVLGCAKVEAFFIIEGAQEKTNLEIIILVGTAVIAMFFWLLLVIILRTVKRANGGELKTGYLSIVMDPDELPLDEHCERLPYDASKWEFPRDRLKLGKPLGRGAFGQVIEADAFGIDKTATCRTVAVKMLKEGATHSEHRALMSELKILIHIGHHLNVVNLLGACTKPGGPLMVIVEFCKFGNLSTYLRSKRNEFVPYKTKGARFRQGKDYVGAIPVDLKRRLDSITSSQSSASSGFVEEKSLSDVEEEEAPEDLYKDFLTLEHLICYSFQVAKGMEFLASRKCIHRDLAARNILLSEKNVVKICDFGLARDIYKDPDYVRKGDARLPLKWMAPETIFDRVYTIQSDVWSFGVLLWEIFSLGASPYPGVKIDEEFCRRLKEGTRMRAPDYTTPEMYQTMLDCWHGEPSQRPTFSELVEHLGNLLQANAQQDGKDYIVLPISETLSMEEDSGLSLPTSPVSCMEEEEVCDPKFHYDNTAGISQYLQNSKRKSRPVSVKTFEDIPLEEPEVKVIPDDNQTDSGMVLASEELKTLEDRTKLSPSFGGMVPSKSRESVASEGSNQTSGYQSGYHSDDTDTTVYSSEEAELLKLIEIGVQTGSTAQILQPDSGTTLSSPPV
Conditions: at 1 µM
Would you mind telling me the reported inhibition of each entry?
Just the number in %, nothing appended.

Reported inhibition of Cc1cc(Cl)cc2c1NC(=O)C2=NNc1ccc(S(N)(=O)=O)cc1 : 4.19

Reported inhibition of Cc1ccc2c(-c3ccnc(Nc4cccc(C(F)(F)F)c4)n3)c(-c3ccccc3)nn2n1 : 69.3

Reported inhibition of COc1cccc(-n2ncc3c(N/N=C/c4ccc(S(C)(=O)=O)cc4)ncnc32)c1 : 66.4

Reported inhibition of N#Cc1cccc(Nc2nccc(-c3cnn4ncccc34)n2)c1 : 43.9

Reported inhibition of COc1cc2ncnc(Nc3ccc(C)c(O)c3)c2cc1OC : 72

Reported inhibition of O=C1Nc2ccccc2/C1=C/Nc1ccc2[nH]c(=O)[nH]c2c1 : 48.1

Reported inhibition of Cc1ccc(C(=O)NC2CC2)cc1-c1ccc2[nH]ncc2c1 : 3.28

Reported inhibition of Cc1ccc(Nc2ccnc(Nc3cccc(C(N)=O)c3)n2)cc1O : 90.7

Reported inhibition of Cc1cc(-c2ccccn2)cc(C)c1/C=C/c1cncc(-c2nn[nH]n2)c1 : 14.2

Reported inhibition of COc1cc(Nc2nccc(-c3cnn4ncccc34)n2)cc(OC)c1 : 63.8

Reported inhibition of CN1CCN(C(=O)c2ccc(NC(=O)Nc3ccc(N(C)c4ccnc(Nc5ccc(CS(C)(=O)=O)cc5)n4)cc3)cc2)CC1 : 69.2

Reported inhibition of O=C1Nc2ccc(-c3cccnc3)cc2C1=Cc1cc(Br)c(O)c(Br)c1 : 10.1

Reported inhibition of NS(=O)(=O)c1ccc(Nc2cc(-c3cccc(O)c3)n[nH]2)cc1 : 19.2

Reported inhibition of CN(C)CCCn1c(-c2nonc2N)nc2cnccc21 : 8.24

Reported inhibition of Cc1cc(O)cc(C)c1/C=C/c1cncc(C(=O)N(C)C)c1 : 12.3

Reported inhibition of COC(=O)c1cncc(/C=C/c2c(C)cc(O)cc2C)c1 : 4.91

Reported inhibition of Cc1ccc(NC(=O)CC2CC2)cc1-c1ccc(C(=O)NCC2CC2)cc1 : 12.3

Reported inhibition of Cc1nc(-c2ccccc2)n2nc(NCCCN3CCOCC3)ncc12 : 5.25

Reported inhibition of Nc1nccc(-c2c(-c3ccc(F)cc3)ncn2CCCN2CCOCC2)n1 : 11.2

Reported inhibition of Cc1ccc2c(c1)/C(=N/Nc1ccc(S(N)(=O)=O)cc1)C(=O)N2 : 22.6

Reported inhibition of CS(=O)(=O)Nc1cccc(-c2ccc3c(NC(=O)C4CC4)n[nH]c3c2)c1 : 7.91

Reported inhibition of CC(C)c1ccc2c(c1)NC(=O)/C2=N/Nc1ccc(S(N)(=O)=O)cc1 : 4.21

Reported inhibition of c1ccc(Nc2ncc(-c3ccccc3)o2)cc1 : 19.8

Reported inhibition of CC(C)c1ccc(Nc2nccc(-c3cnn4ncccc34)n2)cc1 : 14.6

Reported inhibition of CCn1c(-c2nonc2N)nc2c(C#CC(C)(C)O)nc(OCCNC)cc21 : 64.8

Reported inhibition of COc1cccc(-n2ncc3c(N/N=C/c4ccc(C)cc4)ncnc32)c1 : 19.1

Reported inhibition of ON=C1CCc2cc(-c3nc(C4CCNCC4)[nH]c3-c3ccncc3)ccc21 : 4.49

Reported inhibition of CN(C)c1cc2c(Nc3ccc4c(cnn4Cc4ccccc4)c3)ncnc2cn1 : 18.2

Reported inhibition of C[C@@H](Oc1cc(-n2cnc3ccc(OCC4CCN(C)CC4)cc32)sc1C(N)=O)c1ccccc1C(F)(F)F : 34.4

Reported inhibition of Nc1ccc(C#Cc2cncnc2Nc2ccc(OCc3cccc(F)c3)c(Cl)c2)cc1 : 5.84

Reported inhibition of N#Cc1c(NC(=O)c2ccccc2F)sc2c1CCCC2 : -0.36

Reported inhibition of COC(=O)c1ccc2c(c1)C(=Cc1cc(Br)c(O)c(Br)c1)C(=O)N2 : 24.5

Reported inhibition of OCc1ccc(-c2nc(-c3ccccn3)c(-c3ccc4c(c3)OCO4)[nH]2)cc1 : 6.53

Reported inhibition of Cc1ccc(O)cc1Nc1ccnc2ccc(S(C)(=O)=O)cc12 : 71.1

Reported inhibition of COc1ccc2ncnc(Nc3ccc(OCc4ccccc4)cc3)c2c1 : 3

Reported inhibition of O=S(=O)(CCOCc1ccc(-c2ccc3ncnc(Nc4ccc(OCc5cccc(F)c5)c(Cl)c4)c3c2)o1)c1ccccc1 : 8

Reported inhibition of CN(c1ccc(NC(=O)Nc2ccc(OC(F)(F)F)cc2)cc1)c1ccnc(Nc2cccc(S(N)(=O)=O)c2)n1 : 99.6

Reported inhibition of COc1ccc(-c2nn3ncccc3c2-c2ccnc(Nc3cccc(C(F)(F)F)c3)n2)cc1 : 11.1

Reported inhibition of Nc1nccc(C#Cc2cncnc2Nc2ccc(OCc3cccc(F)c3)c(Cl)c2)n1 : 10.6

Reported inhibition of Cc1ccc2c(-c3ccnc(Nc4ccc5c(c4)OCCO5)n3)c(-c3ccc(C(F)(F)F)cc3)nn2n1 : 2.81
